# assay-details: PBS solubility
# Format: physicochemical
# recorded-conditions: aqueous buffer
readout-kind: solubility (µg/mL)

CCC(C(=O)Oc1ccc(SC)cc1)c1ccccc1 (stereo not drawn) = 10

P: CCC(C(=O)Oc1ccc(S(C)(=O)=O)cc1)c1ccccc1 (stereo not drawn)
Q: CCC(C(=O)Oc1ccc([S+](C)[O-])cc1)c1ccccc1 (stereo not drawn)
Q: Which of the two items, P and Q , has the greater recorded solubility? Write down the label attached to your selection.
Ans: Q
(Q: 600 µg/mL, P: 10 µg/mL)

###

# assayed-target: porcine pancreatic elastase (PPE) (Sus scrofa)
# Sequence (P00772 27-266): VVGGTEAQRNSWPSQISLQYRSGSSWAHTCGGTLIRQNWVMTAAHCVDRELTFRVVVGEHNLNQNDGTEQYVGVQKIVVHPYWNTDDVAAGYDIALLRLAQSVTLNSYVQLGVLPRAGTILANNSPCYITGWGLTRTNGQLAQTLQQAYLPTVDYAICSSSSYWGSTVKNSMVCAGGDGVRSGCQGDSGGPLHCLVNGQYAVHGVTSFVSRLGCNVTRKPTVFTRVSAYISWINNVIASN
# assay-details: Specificity determination, porcine pancreatic elastase, N-succinyl-ala-ala-ala-pNA substrate
# Type: biochemical
# recorded-conditions: ratio of I50's (PPE/HNE)
# Description: Representative compounds according to the invention have been compared with a compound (Compound A) typifying the compounds described in U.S. Pat. […]
readout-kind: PPE (I50)/HNE (I50)

Look over these answered cases.
CCC(C(=O)Oc1ccc(S(C)(=O)=O)cc1)c1ccccc1 (stereo not shown) = 129.6
CCC(C(=O)Oc1ccc(S(C)(=O)=O)cc1)c1ccc(OC)cc1 (stereo not shown) = 38.6

A: CCC(C(=O)Oc1ccc(S(C)(=O)=O)cc1)c1ccc2cc(OC)ccc2c1 (stereo not shown)
B: CC(C)(C)C(=O)Oc1ccc(S(C)(=O)=O)cc1 [Compound A, reference compound]
Q: Please choose the item with the lower PPE (I50)/HNE (I50) value from this pair: A and B Write down the label attached to your selection.
Ans: B
(B: 18.84, A: 29.1)

###

# assayed-target: human neutrophil elastase (HNE) (Homo sapiens, UniProt P08246)
# Sequence (P08246 30-267): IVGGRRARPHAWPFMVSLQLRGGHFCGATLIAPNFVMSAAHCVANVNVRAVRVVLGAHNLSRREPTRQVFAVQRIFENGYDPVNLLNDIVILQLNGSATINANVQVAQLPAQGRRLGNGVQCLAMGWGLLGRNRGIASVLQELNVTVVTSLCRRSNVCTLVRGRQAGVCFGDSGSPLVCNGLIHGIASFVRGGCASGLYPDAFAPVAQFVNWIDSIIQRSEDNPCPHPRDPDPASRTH
# assay-details: Potency (I50 determination) against human neutrophil elastase, N-methoxysuccinyl-ala-ala-pro-val-pNA substrate
# Assay type: biochemical
# recorded-conditions: Table IV; human neutrophil elastase; read-out: HNE I50
readout-kind: IC50 (nM)

CC(C)(C)C(=O)Oc1ccc(S(C)(=O)=O)cc1 [Compound A, reference compound] = 129
CCC(C(=O)Oc1ccc(S(C)(=O)=O)cc1)c1ccc(OC)cc1 (stereo not shown) [Compound 37] = 31

I: CCC(C(=O)Oc1ccc(S(C)(=O)=O)cc1)c1ccccc1 (stereo not shown) [Compound 3]
II: CCC(C(=O)Oc1ccc(S(C)(=O)=O)cc1)c1ccc2cc(OC)ccc2c1 (stereo not shown) [Compound 384]
Q: Which of the two items, I and II , has the greater recorded IC50? Write down the label attached to your selection.
Ans: II

###

# assayed-target: human neutrophil elastase (HNE) (Homo sapiens)
# assay-details: Potency (I50 determination) against human neutrophil elastase, N-methoxysuccinyl-ala-ala-pro-val-pNA substrate
# Type: biochemical
# recorded-conditions: Table III, series with varied R4; read-out: I50
readout-kind: IC50 (nM)

Look over these answered cases.
CCC(C(=O)Oc1ccc([S+](C)[O-])cc1)c1ccccc1 (stereo not drawn) [S(O)CH3] = 600
CCC(C(=O)Oc1ccc(SC)cc1)c1ccccc1 (stereo not drawn) [SCH3] = 9000
CCC(C(=O)Oc1ccc(SCC(C)(C)C(=O)O)cc1)c1ccccc1 (stereo not drawn) [SCH2 C(CH3)2 CO2 H] = 892
CCC(C(=O)Oc1ccc(S(=O)(=O)CC(C)(C)C(=O)O)cc1)c1ccccc1 (stereo not drawn) [S(O2)CH2 C(CH3)2 CO2 H] = 141

A: CCC(C(=O)Oc1ccc(S(C)(=O)=O)cc1)c1ccccc1 (stereo not drawn) [S(O)2 CH3]
B: CCC(C(=O)Oc1ccc([S+]([O-])CC(C)(C)C(=O)O)cc1)c1ccccc1 (stereo not drawn) [S(O)CH2 C(CH3)2 CO2 H]
Q: Please choose the item with the lower IC50 value from this pair: A and B Write down the label attached to your selection.
Ans: A
(A: 100 nM, B: 357 nM)

Source listed as patent US5214191A.
